assay: Binding of peptides to synthetic melanin (Tricine-SDS-PAGE analysis)
measurement.context: filtered preformed melanin; peptide/L-Dopa 1/4; 18 hours, pH 8.5
Non-standard residues stand in square brackets, D forms with d. No end group written: not given here. Hyp = O=C(O)[C@@H]1C[C@@H](O)CN1
measured.parameter: Binding of peptides on synthetic melanin, Mel + peptide 18 hours at pH 8.5 (%)
Write the value in % as a bare number.

Enquiry: Field request: Binding of peptides on synthetic melanin, Mel + peptide 18 hours at pH 8.5 | item: Acetyl-R C SIYRYYGL (Ac-RCSIYRYYGL) [SEQ ID NO: 8]
Return: 42

Enquiry: Looking for the measured Binding of peptides on synthetic melanin, Mel + peptide 18 hours at pH 8.5 of Acetyl-K SIYRYYGL (Ac-KSIYRYYGL) [SEQ ID NO: 7] , can you help?
Return: 62

Enquiry: // query Binding of peptides on synthetic melanin, Mel + peptide 18 hours at pH 8.5 value for entry P SIYRYYGL (PSIYRYYGL; Modified test peptide) [SEQ ID NO: 5]
Return: 41

Enquiry: Would you kindly share the measured Binding of peptides on synthetic melanin, Mel + peptide 18 hours at pH 8.5 for SIYRYYGL [SEQ ID NO: 3, reference compound] ?
Return: 31

Enquiry: Quick one: Binding of peptides on synthetic melanin, Mel + peptide 18 hours at pH 8.5 for HydroxyP SIYRYYGL ([Hyp]SIYRYYGL) [SEQ ID NO: 6] ?
Return: 74

Enquiry: Endpoint output: Binding of peptides on synthetic melanin, Mel + peptide 18 hours at pH 8.5 of Acetyl-R M SIYRYYGL (Ac-RMSIYRYYGL) [SEQ ID NO: 11] . Value?
Return: 32

Enquiry: Name the recorded Binding of peptides on synthetic melanin, Mel + peptide 18 hours at pH 8.5 for Acetyl-R SIYRYYGL (Ac-RSIYRYYGL) [SEQ ID NO: 4] .
Return: 0
